- Experimental system: human KOR (Homo sapiens, UniProt P41145)
- Procedure details: [35S]-GTPγS functional assay, KOR-expressed CHO cell membranes
- Reported conditions: read-out: KOR [35S]-GTPγS binding EC50; mean ± SEM, at least three experiments
Recorded metric: EC50 (µM)
Response body: numeric value in µM, unit text excluded.

[[record]]
molecule = "N#Cc1cc(C(=O)N[C@@H]2CC[C@@]3(O)[C@H]4Cc5cccc6c5[C@@]3(CCN4CC3CC3)[C@H]2O6)ccn1 [Compound 6c]"
unit_descriptor = "µM"
measured_value = 0.092


Request: Identify measured EC50 obtained with human KOR (Homo sapiens, UniProt P41145) for O=C(N[C@@H]1CC[C@@]2(O)[C@H]3Cc4cccc5c4[C@@]2(CCN3CC2CC2)[C@H]1O5)c1ccnc(Br)c1 [Compound 6b] .
Response: 0.0819

###

Below is a list of entries, each paired with its recorded Selectivity δ/κ value.
- Experimental system: KOR (Mus musculus)
- Procedure details: Competitive radioligand binding assay, KOR
- Design: species or system mice
- Reported conditions: Ki ratio DOR/KOR

Example compounds with recorded Selectivity δ/κ:
[[record]]
smiles_string = "Cl.O=C(N[C@@H]1CC[C@@]2(O)[C@H]3Cc4cccc5c4[C@@]2(CCN3CC2CC2)[C@H]1O5)c1ccnc(Cl)c1"
experimental_system = "KOR (Mus musculus)"
measured_value = 203

[[record]]
smiles_string = "N#Cc1cc(C(=O)N[C@@H]2CC[C@@]3(O)[C@H]4Cc5cccc6c5[C@@]3(CCN4CC3CC3)[C@H]2O6)ccn1"
experimental_system = "KOR (Mus musculus)"
measured_value = 551

[[record]]
smiles_string = "O=C(N[C@@H]1CC[C@@]2(O)[C@H]3Cc4cccc5c4[C@@]2(CCN3CC2CC2)[C@H]1O5)c1ccnc(Br)c1"
experimental_system = "KOR (Mus musculus)"
measured_value = 280

[[record]]
smiles_string = "Cc1cc(C(=O)N[C@@H]2CC[C@@]3(O)[C@H]4Cc5cccc6c5[C@@]3(CCN4CC3CC3)[C@H]2O6)ccn1"
experimental_system = "KOR (Mus musculus)"
measured_value = 38.0


Could you now consider this next compound?
Request: Quick one: give measured Selectivity δ/κ for `COc1cc(C(=O)N[C@@H]2CC[C@@]3(O)[C@H]4Cc5cccc6c5[C@@]3(CCN4CC3CC3)[C@H]2O6)ccn1`
Response: 67.9

###

- Experimental system: KOR (Mus musculus)
- Procedure details: Competitive radioligand binding assay, KOR
- Set-up: species or system mice
- Reported conditions: Ki ratio MOR/KOR
Selectivity μ/κ overview
Please reply with the number alone, leaving off any unit.

// known answers, use as guide
[[record]]
smiles_string = "Cc1cc(C(=O)N[C@@H]2CC[C@@]3(O)[C@H]4Cc5cccc6c5[C@@]3(CCN4CC3CC3)[C@H]2O6)ccn1"
measured_value = 0.41

[[record]]
smiles_string = "Cl.O=C(N[C@@H]1CC[C@@]2(O)[C@H]3Cc4cccc5c4[C@@]2(CCN3CC2CC2)[C@H]1O5)c1ccnc(Cl)c1"
measured_value = 1.8

[[record]]
smiles_string = "O=C(N[C@@H]1CC[C@@]2(O)[C@H]3Cc4cccc5c4[C@@]2(CCN3CC2CC2)[C@H]1O5)c1ccnc(Br)c1"
measured_value = 3.3

[[record]]
smiles_string = "COc1cc(C(=O)N[C@@H]2CC[C@@]3(O)[C@H]4Cc5cccc6c5[C@@]3(CCN4CC3CC3)[C@H]2O6)ccn1"
measured_value = 0.53


Next:
Request: For the compound `N#Cc1cc(C(=O)N[C@@H]2CC[C@@]3(O)[C@H]4Cc5cccc6c5[C@@]3(CCN4CC3CC3)[C@H]2O6)ccn1` , give its measured Selectivity μ/κ value.
Response: 9.5
